- Assay comment: Lipid clearance study: lipid remaining in liver tissue by LC-MS/MS
- Test conditions: 6 h; ICR female mice, 0.5 mg/kg i.v. bolus dose mRNA
Endpoint label: % Dose Remaining in Liver Tissue (%)
Lab book: enter the figure in %, no units written.

CCCCCCCCC(CCCCCCCC)COC(=O)CCCCCN(CCCCN(CCO)CCCCC(COC(=O)CCCCCCC)COC(=O)CCCCCCC)C1CCC1    7.87

Prompt: GET /values?readout=% Dose Remaining in Liver Tissue&item= CCCCCCCCC(CCCCCCCC)CC(=O)NCCCCCN(CCN(CCO)CCCCCOC(=O)CC(CCCCCCCC)CCCCCCCC)C1CCCCCC1
Response: 48.44

Prompt: GET /values?readout=% Dose Remaining in Liver Tissue&item= CCCCCCCCCCCOC(=O)CCCCCN(CCN(CCO)CCCCCC(=O)OCC(CCCCCCCC)CCCCCCCC)C1CCCCC1
Response: 94.55

* * *

- Assay comment: Lipid nanoparticle size and polydispersity by dynamic light scattering
- Type: physicochemical
- Test conditions: LNP of lipid/DSPC/cholesterol/PEG-lipid 50:10:38.5:1.5 encapsulating hEPO mRNA
Endpoint label: polydispersity
Please state the value as a number alone, without comment.

Known results for compounds:
CCCCCCCCC(CCCCCC)CNC(=O)CCN(CCO)CCN(CCCCC(COC(=O)CCCCCCC)COC(=O)CCCCCCC)C1CCCCCCC1 (stereo not shown)    0.07
CCCCCCCCC(CCCCCCCC)CNC(=O)CCCCCN(CCN(CCCCCCCCCO)CCCCCC(=O)OCC(CCCCCCCC)CCCCCCCC)C1CCC1    0.019
CCCCCCCCCCCOC(=O)CCCCCN(CCN(CCO)CCCCCC(OCCCCCCCC)OCCCCCCCC)C1CCC1    0.054
CCCCCCCCCCCOC(=O)CCCCCN(CC=C(C)C)CCN(CCCCCC(=O)OCC(CCCCCCCC)CCCCCCCC)C1CCC(O)CC1 (stereo not shown)    0.035
CCCCCCCCC(CCCCCCCC)COC(=O)CCCCCN1CCC(N(CCO)CCCCC(COC(=O)CCCCCCC)COC(=O)CCCCCCC)CC1    0.066
CCCCCCCCC(CCCCCCCC)COC(=O)OCCCCCN(CCO)CCN(CCCCCNC(=O)CC(CCCCCC)CCCCCCCC)C1CCCCCC1 (stereo not shown)    0.048

Next compound, please.
Prompt: GET /values?readout=polydispersity&item= CCCCCCCCC(CCCCCCCC)COC(=O)CCCCCN(CCO)CCN(CCCCCC(=O)OCC(CCCCCCCC)CCCCCCCC)C1CCOC1 (stereo not shown)
Response: 0.052

* * *

- Assay comment: Apparent pKa of LNP formulations, TNS fluorescence assay
- Format: physicochemical
- Test conditions: LNP cationic lipid/DSPC/cholesterol/DMG-PEG 50/10/38.5/1.5 mol %
Each entry below carries its reported Apparent Pka.

CCCCCCCCCCCCCCN(CCCCCCCCCCCCCC)C(=O)CCCCCN(CCO)CCN(CCCCCC(=O)OCCCCCCCCCCC)C1CCCCC1    6.745
CCCCCCCCC(CCCCCCCC)CC(=O)NCCCCCN(CCN(CCO)CCCCCOC(=O)CC(CCCCCCCC)CCCCCCCC)C1CCCCC1    6.597

Next molecule, please.
Prompt: GET /values?readout=Apparent Pka&item= CCCCCCCCCCCOC(=O)CCCCCN(CCN(CCO)CCCCCC(=O)OCC(CCCCCCCC)CCCCCCCC)C1CC(OC)C1 (stereo not drawn)
Response: 6.51

* * *

- Assay comment: Encapsulation efficiency of lipid nanoparticles, Quant-it Ribogreen RNA assay
- Assay type: physicochemical
- Test conditions: LNP of lipid/DSPC/cholesterol/PEG-lipid 50:10:38.5:1.5 encapsulating hEPO mRNA
Each entry below carries its reported Encapsulation Efficiency.
Lab book: enter the figure in %, no units written.

CCCCCCCCCCCCCCOCC(CN(CCN(CCO)CCCCCC(=O)OCC(CCCCCCCC)CCCCCCCC)C1CCC1)OCCCCCCCC (stereo not shown)    95.8

Prompt: GET /values?readout=Encapsulation Efficiency&item= CCCCC/C=C\CCCOC(=O)CCCCCN(CCN(CCO)CCCCCC(=O)OCC(CCCCCCCC)CCCCCCCC)C1CCCCC1
Response: 90.2

* * *

- Assay comment: Apparent pKa of LNP formulations, TNS fluorescence assay
- Format: physicochemical
- Test conditions: LNP cationic lipid/DSPC/cholesterol/DMG-PEG 50/10/38.5/1.5 mol %
Endpoint label: Apparent Pka
Please state the value as a number alone, without comment.

Known results for molecules:
CCCCCCCCC(CCCCCC)CNC(=O)CCCCCN(CCCCN(CCO)CCCCC(COC(=O)CCCCCCC)COC(=O)CCCCCCC)C1CCCCCCC1 (stereo not shown)    6.858
CCCCCCCCC(CCCCCC)CNC(=O)CCCCN(CCO)CCN(CCCCC(COC(=O)CCCCCCC)COC(=O)CCCCCCC)C1CCCCCC1 (stereo not shown)    6.849
CCCCCCCCC(CCCCCCCC)COC(=O)CCCCCN(CCO)CCN(CCCCCOC(=O)OCC(CCCCCCCC)CCCCCCCC)C1CCCCC1    5.990
CCCCCCCCC(CCCCCCCC)COC(=O)CCCCCN(CC)CCN(CCO)CCCCCC(=O)OCC(CCCCCCCC)CCCCCCCC    6.858
CCCCCCCCC(CCCCCC)COC(=O)CCCCCN(CCO)CCN(CCCCC(COC(=O)CCCCCCC)COC(=O)CCCCCCC)C1CCCCCC1 (stereo not shown)    6.218
CCCCCCCCCCCOC(=O)CCCCCN(CCN(CCO)CCCCCOC(=O)OCC(CCCCCCCC)CCCCCCCC)C1CCCCC1    6.539
CCCCCCCCCCCC(=O)OCCCCCN(CCN(CCO)CCCCCOC(=O)CC(CCCCCCCC)CCCCCCCC)C1CCCCCCC1    6.271
CCCCCCCCC(CCCCCC)COC(=O)CCCCCN(CCO)CCN(CCCCC(COC(=O)CCCCCCC)COC(=O)CCCCCCC)C1CCCC1 (stereo not shown)    6.494
CCCCCCCCC(CCCCCC)CNC(=O)CCCCN(CCO)CCN(CCCCC(COC(=O)CCCCCCC)COC(=O)CCCCCCC)C1CCCC1 (stereo not shown)    6.872
CCCCCCCCCCCOC(=O)CCCCCN(CCN(CCO)CCCCCC(=O)OCC(CCCCCCCC)CCCCCCCC)C1CC(F)(F)C1    5.786

Prompt: GET /values?readout=Apparent Pka&item= CCCCCCCCC(CCCCCCCC)COC(=O)CCCCCN(CCO)CCN(CCCCCC(=O)OCC(CCCCCCCC)CCCCCCCC)C1CCC(C)CC1 (stereo not shown)
Response: 5.838

Prompt: GET /values?readout=Apparent Pka&item= CCCCCCCC/C=C\CCCCCCCC(=O)OCCCCCN(CCN(CCO)CCCCCC(=O)OCC(CCCCCCCC)CCCCCCCC)C1CCCCC1
Response: 6.348

Prompt: GET /values?readout=Apparent Pka&item= CCCCCCCCOC(CCCCCN(CCO)CCN(CCCCCC(=O)NCC(CCCCCC)CCCCCCCC)C1CCCCCC1)OCCCCCCCC (stereo not shown)
Response: 6.738

* * *

- Assay comment: Lipid nanoparticle size and polydispersity by dynamic light scattering
- Format: physicochemical
- Test conditions: LNP of lipid/DSPC/cholesterol/PEG-lipid 50:10:38.5:1.5 encapsulating hEPO mRNA
Endpoint label: polydispersity

Known results for compounds:
CCCCCCCCC(CCCCCCCC)COC(=O)CCCCCN(CCO)CCN(CCCCCC(=O)OCCCCCC)C1CCCCC1 [Compound 101]    0.078
CCCCCCCCC(CCCCCCCC)CC(=O)NCCCCCN(CCN(CCO)CCCCCOC(=O)CC(CCCCCCCC)CCCCCCCC)C1CCCCCCC1 [Compound 75]    0.037
CCCCCCCCCCCCCCCCOC(=O)CCCCCN(CCN(CCO)CCCCCC(=O)OCC(CCCCCCCC)CCCCCCCC)C1CCCCC1 [Compound 104]    0.044

Prompt: GET /values?readout=polydispersity&item= CCCCCCCCCCCCCCCCCCOC(=O)CCCCCN(CCN(CCO)CCCCCC(=O)OCC(CCCCCCCC)CCCCCCCC)C1CCCCC1 [Compound 105]
Response: 0.051

Prompt: GET /values?readout=polydispersity&item= CCCCCCCCC(CCCCCCCC)CNC(=O)CCCCCN(CCO)CCN(CCCCCC(=O)NCC(CCCCCCCC)CCCCCCCC)C1CCCCC1 [Compound 13]
Response: 0.105

Prompt: GET /values?readout=polydispersity&item= CCCCCCCCC(CCCCCC)COC(=O)CCCCCN(CCCCN(CCO)CCCCC(COC(=O)CCCCCCC)COC(=O)CCCCCCC)C1CC1 (centres unmarked) [Compound 190]
Response: 0.13

Prompt: GET /values?readout=polydispersity&item= CCCCCCCCC(CCCCCC)CNC(=O)CCCCCCN(CCO)CCN(CCCCC(COC(=O)CCCCCCC)COC(=O)CCCCCCC)C1CCCCCCC1 (centres unmarked) [Compound 233]
Response: 0.052

Prompt: GET /values?readout=polydispersity&item= CCCCCCCCCCCOC(=O)CCCCCN(CCN(CCO)CCCCCC(=O)OCC(CCCCCC)CCCCCCCC)C1CC1 (centres unmarked) [Compound 3]
Response: 0.131

Prompt: GET /values?readout=polydispersity&item= CCCCCCCCC(CCCCCC)CNC(=O)CCCCCN(CCOCCO)CCN(CCCCC(COC(=O)CCCCCCC)COC(=O)CCCCCCC)C1CCCCCCC1 (centres unmarked) [Compound 208]
Response: 0.053

Prompt: GET /values?readout=polydispersity&item= CCCCCCCC/C=C\CCCCCCCC(=O)OCCCCCN(CCN(CCO)CCCCCC(=O)OCC(CCCCCCCC)CCCCCCCC)C1CCCCC1 [Compound 109]
Response: 0.032

Prompt: GET /values?readout=polydispersity&item= CCCCCCCCC(CCCCCCCC)COC(=O)CCCCCN(CCO)CCN(CCCCC)CCCCCC(=O)OCC(CCCCCCCC)CCCCCCCC [Compound 124]
Response: 0.111

Prompt: GET /values?readout=polydispersity&item= CCCCCCCCCCCOC(=O)CCCCCN(CCN(CCO)CCCCCC(=O)OCC(CCCCCC)CCCCCCCC)C1CCCC1 (centres unmarked) [Compound 5]
Response: 0.073
